Numbers sourced from patent US20230312556A1.

target: mutant BRAF enzyme (BRAF-V600E) (Homo sapiens (Human), UniProt P15056, V600E); experiment: RAF inhibition assay (TB-PMAP2K1 kit), BRAF-V600E; conditions: FLUORESCEIN-MAP2K1 substrate, 60 min reaction
Sequence (P15056 whole entry V600E): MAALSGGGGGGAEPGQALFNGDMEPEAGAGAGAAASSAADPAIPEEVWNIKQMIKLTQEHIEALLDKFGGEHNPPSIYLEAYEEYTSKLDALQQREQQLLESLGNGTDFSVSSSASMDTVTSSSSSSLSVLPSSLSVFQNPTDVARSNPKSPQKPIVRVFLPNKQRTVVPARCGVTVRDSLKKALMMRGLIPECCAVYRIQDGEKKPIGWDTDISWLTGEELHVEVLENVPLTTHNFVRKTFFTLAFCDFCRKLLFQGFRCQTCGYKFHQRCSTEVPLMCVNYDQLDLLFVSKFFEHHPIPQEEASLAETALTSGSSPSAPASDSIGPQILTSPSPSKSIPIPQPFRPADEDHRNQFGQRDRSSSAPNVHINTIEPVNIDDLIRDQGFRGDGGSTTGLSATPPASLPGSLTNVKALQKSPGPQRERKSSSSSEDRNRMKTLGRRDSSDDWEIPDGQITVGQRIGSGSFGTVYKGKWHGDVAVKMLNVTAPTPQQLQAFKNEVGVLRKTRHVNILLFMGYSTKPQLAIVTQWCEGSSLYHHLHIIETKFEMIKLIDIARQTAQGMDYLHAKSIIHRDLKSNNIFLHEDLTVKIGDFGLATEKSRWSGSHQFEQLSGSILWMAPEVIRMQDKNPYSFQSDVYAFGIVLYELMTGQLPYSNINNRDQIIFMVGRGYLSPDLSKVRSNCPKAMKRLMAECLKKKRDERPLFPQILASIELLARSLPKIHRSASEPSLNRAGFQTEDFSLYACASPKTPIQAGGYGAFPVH
pIC50: −log10 of the molar value.
Output criterion met for pIC50 not less than 8; output criterion not met otherwise.

*Q* # bool: pIC50 of Cc1ccc2c(Nc3ccc(CN(C)C)c(C(F)(F)F)c3)nccc2c1NC(=O)c1cnc2c(N)ncnn12 >= 8
*A* criterion not met

*Q* # bool: pIC50 of Cc1ccc2c(Cc3ccc(F)cc3)nccc2c1NC(=O)c1csc2c(N)ncnc12 >= 8
*A* criterion not met

*Q* # bool: pIC50 of Cc1ccc2c(C(=O)c3cccc(C(F)(F)F)c3)nccc2c1NC(=O)c1csc2c(N)ncnc12 >= 8
*A* criterion not met

*Q* # bool: pIC50 of Cc1ccc2c(C(O)c3ccc(Cl)cc3F)nccc2c1NC(=O)c1csc2c(N)ncnc12 (stereo not shown) >= 8
*A* criterion met

*Q* # bool: pIC50 of COc1ccc(C(O)c2nccc3c(NC(=O)c4csc5c(N)ncnc45)c(C)ccc23)cc1 (stereo not shown) >= 8
*A* criterion not met

*Q* # bool: pIC50 of Cc1ccc2c(Nc3cccc(Cl)c3F)nccc2c1NC(=O)c1cc(O)cc2c(N)ncnc12 >= 8
*A* criterion not met

*Q* # bool: pIC50 of Cc1ccc2c(Nc3cccc(C(F)(F)F)c3)nccc2c1NC(=O)c1cnc2c(N)ncnn12 >= 8
*A* criterion met
